Data provenance: patent US10618914B2

# Test system: STAT3
# test.name: HCS STAT3 assay
# Assay type: cell-based
# condition.label: Table 2; read-out: STAT3 (IC50)
measured.attribute: IC50 (µM)

I. COc1ccc(C2=Nn3c(nnc3-c3cc(-c4ccccc4)n[nH]3)SC2CC(=O)N2CCCC2)cc1 (stereo not shown)
II. CC1Sc2nnc(-c3[nH]nc4c3CCCC4)n2N=C1c1ccccc1 (racemic)
III. COc1ccc(C2=Nn3c(nnc3-c3nn(C)c4c3CCC4)SC2C)cc1 (stereo not shown)
IV. CC1Sc2nnc(-c3cc(-c4ccccc4)n(C)n3)n2N=C1c1ccc(Cl)c(Cl)c1 (stereo not shown)
Reorder the list above by recorded IC50 in ascending order. Please express your ranking as an ordered list of the labels.
IV, I, II, III
(IV: 4.8 µM, I: 9.1 µM, II: 22.4 µM, III: 46.1 µM)

---

# System: STAT3
# test.name: HCS STAT3 assay
# Assay type: cell-based
# condition.label: Table 2; read-out: STAT3 (IC50)
measured.attribute: IC50 (µM)

- molecule: "CCN(CC)c1ccc(C2=Nn3c(nnc3-c3[nH]nc4c3CCC4)SC2C)cc1 (centres unmarked) [compound 10521]"
  measure.unit: "µM"
  numeric.readout: 6.6
- molecule: "COc1ccc(C2=Nn3c(-c4cc(-c5ccccc5)n[nH]4)nnc3[S+]([O-])C2C)cc1 (centres unmarked) [compound 10534]"
  measure.unit: "µM"
  numeric.readout: 26.2
- molecule: "CC1Sc2nnc(-c3cc(-c4ccc(Cl)cc4)n[nH]3)n2N=C1c1ccccc1 (racemic) [compound 10174]"
  measure.unit: "µM"
  numeric.readout: 5.7
- molecule: "COc1ccc(C2=Nn3c(nnc3-c3[nH]nc4c3CCC4)SC2C)cc1OC (centres unmarked) [compound 10494]"
  measure.unit: "µM"
  numeric.readout: 25.1
- molecule: "CCN(CC)c1ccc(C2=Nn3c(nnc3-c3cc(-c4ccccc4)n(C)n3)SC2C)cc1 (centres unmarked) [compound 10555]"
  measure.unit: "µM"
  numeric.readout: 3.7
- molecule: "COc1ccc(C2=Nn3c(nnc3-c3cc(-c4ccccc4)n(C(C)=O)n3)SC2C)cc1 (centres unmarked) [compound 10479]"
  measure.unit: "µM"
  numeric.readout: 7.9

a. COc1ccc(C2=Nn3c(nnc3-c3cc(-c4ccccc4)n(C)n3)SC2C(C)C)cc1 (centres unmarked) [compound 10554]
b. CC1Sc2nnc(-c3nn(Cc4ccc(OC(F)(F)F)cc4)c4c3CCC4)n2N=C1c1ccc(Cl)c(Cl)c1 (centres unmarked) [compound 10477]
Kindly identify the item with the lower IC50 figure among these two: a and b Reply with the label of the item you choose.
a
(a: 8.3 µM, b: 31 µM)

---

# System: STAT3
# test.name: HCS STAT3 assay
# Format: cell-based
# condition.label: Table 2; read-out: STAT3 (IC50)
measured.attribute: IC50 (µM)

- molecule: "CC(C)C1Sc2nnc(-c3cc(-c4ccccc4)n(C)n3)n2N=C1c1ccccc1 (centres unmarked) [compound 10562]"
  IC50, µM: 12.2
- molecule: "CC1Sc2nnc(-c3cc(-c4ccc(F)cc4)n[nH]3)n2N=C1c1ccccc1 (racemic) [compound 10135]"
  IC50, µM: 3.8
- molecule: "COc1ccc(C2=Nn3c(nnc3-c3ccccc3)SC2C)cc1 (centres unmarked) [UPCDC10352]"
  IC50, µM: 27.6
- molecule: "O=C(CC1Sc2nnc(-c3cc(-c4ccc(Cl)cc4)n[nH]3)n2N=C1c1ccccc1)N1CCCC1 (centres unmarked) [compound 10411]"
  IC50, µM: 11.1
- molecule: "COc1ccc(C2=Nn3c(nnc3-c3cc(-c4ccccc4)n[nH]3)SC2Cc2ccccc2)cc1 (centres unmarked) [compound 10321]"
  IC50, µM: 5.8

I. Cc1ccc(C2=Nn3c(nnc3-c3[nH]nc4c3CCC4)SC2C)cc1 (centres unmarked) [compound 10472]
II. CC(=O)n1nc(-c2nnc3n2N=C(c2ccc(Cl)c(Cl)c2)C(C)S3)c2c1CCC2 (centres unmarked) [compound 10458]
Kindly identify the item with the lower IC50 figure among these two: I and II Reply with the label of the item you choose.
II
